Test: S. cerevisiae growth inhibition in permissive medium (OD615), pilot counter-assay for S. cerevisiae lifespan shortening project, permissive growth control (AID 705)
Conditions: OD615, 24 h, at 10 µM, hits give high values
Measured Endpoint: growth inhibition (%)
Give the quantity in %, number only.

Summary for this compound, `CC(C)c1nccn1S(=O)(=O)c1cc(Cl)ccc1Cl` : growth inhibition is -4.57

Summary for this compound, COC(=O)c1cccc(NC(=O)C2COc3ccccc3O2)c1C (stereo not given) : growth inhibition is -14.9

Summary for this compound, `Cc1cc2ncc(-c3ccc(Cl)cc3)c(N)n2n1` : growth inhibition is -12.6

Summary for this compound, `CCOC(=O)N1CCC(NC(=O)C2CCN(S(=O)(=O)c3cccc4cccnc34)CC2)CC1` : growth inhibition is -5.04

Summary for this compound, COc1ccc(C2CC(c3ccc(Cl)cc3Cl)Nc3nc(N)nn32)cc1 (stereo not given) : growth inhibition is 12.9

Summary for this compound, `COc1ccccc1-n1c(=O)[nH]c2c(C(N)=O)nc(-c3cccnc3)nc21` : growth inhibition is -7.79

Summary for this compound, `C=CCSc1nnc(-c2cccnc2)o1` : growth inhibition is -1.77

Summary for this compound, `CC(=O)NCC(=O)N(Cc1ccco1)C1(C(=O)NC2CCCCC2)CCCCC1` : growth inhibition is -7.64

Summary for this compound, CCOc1ccc(C2CC(c3ccc(CC)cc3)n3nc(N)nc3N2)cc1 (stereo not given) : growth inhibition is 1.88

Summary for this compound, `COc1cc(C(=O)NCCc2ccc3c(c2)OCCO3)ccc1OCC(=O)N1CCOCC1` : growth inhibition is -14.7

Summary for this compound, COCCOC(=O)c1[nH]c2c(c1C)C(=O)CC(c1cc(OC)ccc1OC)C2 (stereo not given) : growth inhibition is -16.8

Summary for this compound, `C=CCNC(=O)CSc1nc2sc(C)c(C)c2c(=O)[nH]1` : growth inhibition is -10.2

Summary for this compound, Nc1nc2n(n1)C(c1cccc(Br)c1)CC(c1ccc(F)cc1)N2 (stereo not given) : growth inhibition is 2.49

Summary for this compound, `CN(C)CCNc1ncnc2c1cnn2-c1ccc(Cl)cc1` : growth inhibition is -13.2

Summary for this compound, `C=CCN(C1CCCCC1)S(=O)(=O)c1ccc2c(c1)oc(=O)n2C` : growth inhibition is -16.7

Summary for this compound, `Cc1ccc(N=Cc2ccc[nH]2)c(O)c1` : growth inhibition is -20.2

Summary for this compound, `Cn1nnnc1SCC(=O)N1CCN(c2ccccc2)CC1` : growth inhibition is -0.355

Summary for this compound, CCOc1cccc(N2C(=O)CC(NCc3ccc(S(N)(=O)=O)cc3)C2=O)c1 (stereo not given) : growth inhibition is -14.7

Summary for this compound, `O=C1CN(C(=O)COc2ccccc2)CCN1` : growth inhibition is -14.3

Summary for this compound, COCCN1C(=O)c2oc3ccccc3c(=O)c2C1c1ccc(O)c(OC)c1 (stereo not given) : growth inhibition is -9.35

Summary for this compound, `COc1ccc(S(=O)(=O)N2CCN(c3ccc(C)cc3C)CC2)cc1OC` : growth inhibition is 0.1

Summary for this compound, `Cc1ccc2[nH]c(=O)c3cc(C(=O)NCCN4CCN(C)CC4)sc3c2c1` : growth inhibition is -9.77

Summary for this compound, COc1cc(C(=O)N2c3ccccc3CC2C)cc(OC)c1OC (stereo not given) : growth inhibition is -3.11

Summary for this compound, `c1ccc2c(c1)ccc1nnc(-c3ccc4c(c3)OCO4)n12` : growth inhibition is -7.74

Summary for this compound, `CCOc1ccc(N(CC(=O)NC2CCCCC2)S(=O)(=O)c2c(C)noc2C)cc1` : growth inhibition is -6.46

Summary for this compound, `COc1ccc(-c2cc(C(F)(F)F)n3nc(C)cc3n2)cc1` : growth inhibition is -16.1

Summary for this compound, COc1cccc(C2CC(=O)Nc3c2c(=O)n(C)c(=O)n3C)c1OC (stereo not given) : growth inhibition is -3.2

Summary for this compound, Cn1c(C(=O)NCC2CCCO2)cc2c(=O)n(C)c3ccccc3c21 (stereo not given) : growth inhibition is -6.67

Summary for this compound, `COc1ccccc1OCC(=O)N1CCN(c2ccccc2OC)CC1` : growth inhibition is -3.77

Summary for this compound, `Cc1ccn2cc(-c3ccc(S(=O)(=O)N4CCOCC4)cc3)nc2c1` : growth inhibition is -2.96

Summary for this compound, `Cc1ccc(C)c(S(=O)(=O)n2cnc3ccccc32)c1` : growth inhibition is -18

Summary for this compound, COc1cc(NC(=O)C2CCCN2S(=O)(=O)c2ccc3c(c2)CCC(=O)N3)cc(OC)c1 (stereo not given) : growth inhibition is -15.3

Summary for this compound, CC(=O)c1sc(NC(=O)C2COc3ccccc3O2)nc1C (stereo not given) : growth inhibition is -8.75

Summary for this compound, `COCCCNC(=O)c1oc2ccc(S(=O)(=O)N(C)C3CCCCC3)cc2c1C` : growth inhibition is 1.36

Summary for this compound, `Cc1nc(CC(=O)c2c(C)cc(O)cc2O)cs1` : growth inhibition is -12.2

Summary for this compound, `Cc1ccc2oc(=O)c3cnn(CC(=O)NCCC(C)C)c3c2c1` : growth inhibition is 2.22

Summary for this compound, O=C(O)C1C2C=CC3(CN(C4CCCC4)C(=O)C13)O2 (stereo not given) : growth inhibition is 1.69

Summary for this compound, Cc1nc2ccccn2c1/C(O)=C1\C(=O)C(=O)N(CCCN(C)C)C1c1ccc(F)cc1 (stereo not given) : growth inhibition is -6.91

Summary for this compound, CCCCN(C(=O)c1ccc(Cl)cc1)C1CC2CCC(C1)N2C (stereo not given) : growth inhibition is -9.97

Summary for this compound, COCCOC(=O)C1=C(C)N=c2s/c(=C\c3cccs3)c(=O)n2C1c1cccs1 (stereo not given) : growth inhibition is -9.14

Summary for this compound, `CCOC(=O)C1CCN(C(=O)CN(c2ccc(OC)cc2)S(=O)(=O)c2c(C)noc2C)CC1` : growth inhibition is -7.19

Summary for this compound, `COc1ccc(OCC(=O)N2CCN(C(=O)c3ccccc3)CC2)cc1` : growth inhibition is -15.8

Summary for this compound, `COc1ccc(-c2nc(C#N)c(NCCCN3CCOCC3)o2)cc1` : growth inhibition is 0.22

Summary for this compound, `C(=N\c1nccs1)/c1cccnc1` : growth inhibition is -7.2

Summary for this compound, `CCC(=O)N1CCN(c2nc(-c3ccccc3)c3c(c2C#N)CCCC3)CC1` : growth inhibition is -2.54

Origin of the recorded values: PubChem BioAssay
